Cited source: patent US20070270421A1

# Test system: Human pancreatic cancer cells (SUIT-2)
# Protocol description: Inhibitory activity against migration of human pancreatic cancer cells (SUIT-2)
# Assay type: cell-based
# Reported conditions: SUIT-2, Transwell, HGF stimulation, 24 hrs, read-out: IC50 (concentration necessary to inhibit the cell migration activity by 50%)
pIC50: −log10 of the molar value.
Readout kind: pIC50

O=C(CC(=O)Nc1ccc(Oc2ccnc(NC(=O)N3CCCC3)c2)c(F)c1)Nc1ccc(F)cc1    7.42

[A] O=C(Cc1ccc(F)cc1)NC(=S)Nc1ccc(Oc2cc(NC(=O)N3CCCC3)ncn2)c(F)c1
[B] O=C(Cc1ccc(F)cc1)NC(=S)Nc1ccc(Oc2ccnc(NC(=O)N3CCCC3)c2)c(F)c1
Select one: A or B . Criterion: greater recorded pIC50. Answer with the label corresponding to your selection.
B

====

# System: HGFR (His6-HGFR cytoplasmic domain) (Homo sapiens, UniProt P08581)
# Construct: made in house; host or cells: Spodoptera frugiperda Sf9 insect cells (baculovirus, pFastBac-HT)
# Sequence (P08581 956-1390 limits assumed): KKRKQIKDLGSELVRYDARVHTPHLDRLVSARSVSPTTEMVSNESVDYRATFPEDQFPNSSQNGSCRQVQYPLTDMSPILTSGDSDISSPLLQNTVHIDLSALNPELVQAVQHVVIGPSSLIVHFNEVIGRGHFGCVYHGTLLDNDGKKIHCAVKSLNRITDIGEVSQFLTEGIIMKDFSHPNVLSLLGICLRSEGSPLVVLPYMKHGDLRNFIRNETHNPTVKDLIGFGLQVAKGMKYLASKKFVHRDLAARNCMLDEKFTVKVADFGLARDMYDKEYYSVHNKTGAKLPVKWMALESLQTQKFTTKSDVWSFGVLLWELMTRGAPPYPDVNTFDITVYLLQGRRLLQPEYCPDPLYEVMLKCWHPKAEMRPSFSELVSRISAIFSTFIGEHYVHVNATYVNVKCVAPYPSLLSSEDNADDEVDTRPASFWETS
# Protocol description: Inhibitory activity against HGFR tyrosine kinase activity (HTRF)
# Type: biochemical
# Reported conditions: biotin-poly(GT), ATP, 30° C. 10 min, read-out: IC50 (concentration necessary to inhibit HGFR kinase activity by 50%)
pIC50: −log10 of the molar value.
Readout kind: pIC50

CCN(CC)CCCN(C)C(=O)Nc1cc(Oc2ccc(NC(=O)NC(=O)Cc3ccccc3)cc2F)ccn1 [Example 49]    6.68
CN1CCN(C2CCN(C(=O)Nc3cc(Oc4ccc(NC(=O)NC(=O)Cc5ccccc5)cc4F)ccn3)CC2)CC1 [Example 340]    7.11
Cc1cc(Oc2ccnc(NC(=O)N(C)C)c2)ccc1NC(=O)CC(=O)Nc1ccc(F)cc1 [Example 86]    7.26
CN1CCC(N2CCN(C(=O)Nc3cc(Oc4ccc(NC(=S)NC(=O)Cc5ccc(F)cc5)cc4)ccn3)CC2)CC1 [Example 329]    7.19
CN(C)C1CN(C(=O)Nc2cc(Oc3ccc(NC(=S)NC(=O)Cc4ccc(F)cc4)cc3F)ncn2)C1 [Example 208]    7.30
CCN(CC)CCCN(C)C(=O)Nc1cc(Oc2ccc(NC(=S)NC(=O)Cc3ccc(F)cc3)cc2F)ccn1 [Example 22]    6.96
CN(C)CCN1CCC(N(C)C(=O)Nc2cc(Oc3ccc(NC(=O)NC(=O)Cc4ccccc4)cc3F)ccn2)CC1 [Example 353]    6.74
CN1CC[C@H](N(C)C(=O)Nc2cc(Oc3ccc(NC(=S)NC(=O)Cc4ccc(F)cc4)cc3F)ncn2)C1 [Example 201]    7.30
O=C(Cc1ccccc1)NC(=S)Nc1ccc(Oc2ccnc(NC(=O)N3CCN(CCN4CCC4)CC3)c2)c(F)c1 [Example 397]    7.26
O=C(CC(=O)Nc1ccc(Oc2ccnc(NC(=O)N3CCCCC3)c2)cc1Cl)Nc1ccc(F)cc1 [Example 65]    7.06

[I] O=C(Cc1ccc(F)cc1)NC(=S)Nc1ccc(Oc2cc(NC(=O)N3CCCCC3)ncn2)c(F)c1 [Example 6]
[II] O=C(Cc1ccc(F)cc1)NC(=O)Nc1ccc(Oc2ccnc(NC(=O)N3CCN(CCN4CCC4)CC3)c2)cc1 [Example 389]
[III] CN(C)C(=O)Nc1cc(Oc2ccc(NC(=O)NC(=O)Cc3ccc(F)cc3)cc2F)ncn1 [Example 51]
[IV] CC(=O)Nc1cc(Oc2ccc(NC(=O)CC(=O)Nc3ccc(F)cc3)c(F)c2)ccn1 [Example 74]
# sort list by recorded pIC50, greatest to least Show the ranking through the labels, in the order asked for.
III, IV, I, II

====

# System: HGFR autophosphorylation (Homo sapiens)
# Construct: endogenous in cells
# Sequence (P08581 25-1390): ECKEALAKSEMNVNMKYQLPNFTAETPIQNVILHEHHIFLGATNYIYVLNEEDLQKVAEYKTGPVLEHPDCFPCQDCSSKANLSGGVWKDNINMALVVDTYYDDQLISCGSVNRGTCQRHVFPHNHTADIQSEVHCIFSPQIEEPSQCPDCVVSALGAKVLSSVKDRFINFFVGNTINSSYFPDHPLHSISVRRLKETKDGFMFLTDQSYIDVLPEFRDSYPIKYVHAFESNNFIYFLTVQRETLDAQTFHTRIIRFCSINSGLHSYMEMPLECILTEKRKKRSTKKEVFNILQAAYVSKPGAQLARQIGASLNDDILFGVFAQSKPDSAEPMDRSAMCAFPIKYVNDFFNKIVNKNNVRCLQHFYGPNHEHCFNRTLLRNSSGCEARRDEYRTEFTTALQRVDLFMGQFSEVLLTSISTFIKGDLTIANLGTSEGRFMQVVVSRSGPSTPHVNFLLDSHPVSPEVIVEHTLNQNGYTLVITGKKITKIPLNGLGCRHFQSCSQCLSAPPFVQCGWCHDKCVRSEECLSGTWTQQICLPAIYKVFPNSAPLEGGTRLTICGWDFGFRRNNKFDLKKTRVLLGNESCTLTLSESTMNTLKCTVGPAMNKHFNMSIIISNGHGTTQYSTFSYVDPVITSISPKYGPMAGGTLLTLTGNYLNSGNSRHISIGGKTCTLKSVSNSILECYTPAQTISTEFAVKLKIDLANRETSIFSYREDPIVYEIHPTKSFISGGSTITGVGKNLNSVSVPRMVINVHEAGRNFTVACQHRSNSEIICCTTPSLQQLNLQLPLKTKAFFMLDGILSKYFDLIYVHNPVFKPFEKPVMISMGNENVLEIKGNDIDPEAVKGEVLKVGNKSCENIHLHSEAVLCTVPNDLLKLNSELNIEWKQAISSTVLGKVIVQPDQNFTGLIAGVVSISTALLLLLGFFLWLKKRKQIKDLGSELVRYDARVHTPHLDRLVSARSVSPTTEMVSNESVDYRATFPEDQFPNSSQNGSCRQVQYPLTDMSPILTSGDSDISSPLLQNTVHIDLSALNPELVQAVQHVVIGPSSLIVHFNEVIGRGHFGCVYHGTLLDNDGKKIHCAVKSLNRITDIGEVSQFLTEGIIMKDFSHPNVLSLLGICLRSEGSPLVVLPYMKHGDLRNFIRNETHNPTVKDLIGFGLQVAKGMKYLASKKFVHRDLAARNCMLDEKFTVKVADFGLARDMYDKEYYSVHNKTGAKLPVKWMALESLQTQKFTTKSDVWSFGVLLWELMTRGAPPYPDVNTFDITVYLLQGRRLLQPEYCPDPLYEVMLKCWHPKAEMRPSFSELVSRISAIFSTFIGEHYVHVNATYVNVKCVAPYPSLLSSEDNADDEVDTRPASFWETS
# Protocol description: Inhibitory activity against the HGFR autophosphorylation using ELISA
# Reported conditions: MKN-45 cells, 1 hr treatment, read-out: IC50 (concentration necessary to inhibit HGFR autophosphorylation activity by 50%)
pIC50: −log10 of the molar value.
Readout kind: pIC50

Here's what some known entries look like.
CN1CCCN(C(=O)Nc2cc(Oc3ccc(NC(=O)CC(=O)Nc4ccc(F)cc4)c(F)c3)ccn2)CC1 [Example 92]    6.27
CN(C)C(=O)Nc1cc(Oc2ccc(NC(=O)NC(=O)Cc3ccccc3)cc2F)ccn1 [Example 44]    6.46
O=C(CC(=O)Nc1ccc(Oc2ccnc(NC(=O)N3CCCC3)c2)c(F)c1)Nc1ccc(F)cc1 [Example 56]    6.89
O=C(CC(=O)Nc1ccc(Oc2ccnc(NC(=O)C3CC3)c2)cc1F)Nc1ccc(F)cc1 [Example 77]    6.96
CN1CCC(N(C)C(=O)Nc2cc(Oc3ccc(NC(=S)NC(=O)Cc4ccccc4)cc3F)ccn2)CC1 [Example 28]    7.72
O=C(Cc1ccccc1)NC(=O)Nc1ccc(Oc2ccnc(NC(=O)N3CCOCC3)c2)c(F)c1 [Example 48]    6.59

[A] O=C(Cc1ccc(F)cc1)NC(=S)Nc1ccc(Oc2ccnc(NC(=O)N3CCCC3)c2)c(F)c1 [Example 13]
[B] O=C(Cc1ccccc1)NC(=S)Nc1ccc(Oc2ccnc(NC(=O)N3CCC(O)CC3)c2)c(F)c1 [Example 15]
Select one: A or B . Criterion: greater recorded pIC50. Answer with the label corresponding to your selection.
A

[a] CN1CCC(N(C)C(=O)Nc2cc(Oc3ccc(NC(=O)NC(=O)Cc4ccccc4)cc3F)ccn2)CC1 [Example 52]
[b] O=C(Cc1ccc(F)cc1)NC(=S)Nc1ccc(Oc2ccnc(NC(=O)N3CCCC3)c2)cc1 [Example 9]
Select one: a or b . Criterion: greater recorded pIC50. Answer with the label corresponding to your selection.
b
(b: 7.70, a: 6.47)

====

# System: HGFR (His6-HGFR cytoplasmic domain) (Homo sapiens)
Readout kind: IC50 (nM)

CN(C)C(=O)Nc1cc(Oc2ccc(NC(=S)NC(=O)CC3CC4CCC3C4)cc2F)ccn1 (stereo not drawn)    64

[A] CN(C)C(=O)Nc1cc(Oc2ccc(NC(=S)NC(=O)CC3CCCCC3)cc2F)ccn1
[B] CN(C)CC1CCN(C(=O)Nc2cc(Oc3ccc(NC(=S)NC(=O)Cc4ccc(F)cc4)cc3)ccn2)CC1
# return whichever of A and B has the smaller IC50 Answer with the label corresponding to your selection.
A
(A: 56 nM, B: 130 nM)

====

# System: HGFR (His6-HGFR cytoplasmic domain) (Homo sapiens)
pIC50: −log10 of the molar value.
Readout kind: pIC50

O=C(Cc1ccccc1)NC(=S)Nc1ccc(Oc2ccnc(NC(=O)N3CCC(N4CCC4)CC3)c2)c(F)c1    7.30
CN1CCC(N2CCN(C(=O)Nc3cc(Oc4ccc(NC(=S)NC(=O)Cc5ccc(F)cc5)cc4F)ncn3)CC2)CC1    7.28

====

# System: HGFR autophosphorylation (Homo sapiens)
# Construct: endogenous in cells
# Protocol description: Inhibitory activity against the HGFR autophosphorylation using ELISA
# Reported conditions: MKN-45 cells, 1 hr treatment, read-out: IC50 (concentration necessary to inhibit HGFR autophosphorylation activity by 50%)
Readout kind: IC50 (µM)

CN1CCN(C(=O)Nc2cc(Oc3ccc(NC(=O)NC(=O)Cc4ccccc4)cc3F)ccn2)CC1    0.28

[I] O=C(Cc1ccccc1)NC(=O)Nc1ccc(Oc2ccnc(NC(=O)N3CCC(N4CCCC4)CC3)c2)c(F)c1
[II] O=C(CC(=O)Nc1ccc(Oc2ccnc(NC(=O)N3CCC(N4CCCC4)CC3)c2)cc1F)Nc1ccc(F)cc1
Select one: I or II . Criterion: greater recorded IC50. Answer with the label corresponding to your selection.
I
